Test system: Klebsiella aerogenes
Measurement Protocol: Antimicrobial activity against multidrug resistant Enterobacter aerogenes isolate 19 by broth dilution method
Format: functional
Overview of recorded MIC for various compounds
Just the number please, in µg/mL, no unit attached.

Known results for compounds:
CO/N=C(\C(=O)N[C@@H]1C(=O)N2C(C(=O)[O-])=C(C[N+]3(C)CCCC3)CS[C@H]12)c1csc(N)n1 | 64
C[C@@H](O)[C@H]1C(=O)N2C(C(=O)O)=C(SCCNC=N)C[C@H]12 [IMIPENEM ANHYDROUS] | 2
C[C@@H]1CN(c2c(F)c(N)c3c(=O)c(C(=O)O)cn(C4CC4)c3c2F)C[C@H](C)N1 | 128
CCn1cc(C(=O)O)c(=O)c2cc(F)c(N3CCNCC3)cc21 | 128
O=C(N[C@H](CO)[C@H](O)c1ccc([N+](=O)[O-])cc1)C(Cl)Cl | 1020

Now examine the next entry.
Can you look up the measured MIC of CN(C)[C@@H]1C(O)=C(C(N)=O)C(=O)[C@@]2(O)C(O)=C3C(=O)c4c(O)cccc4[C@@](C)(O)[C@H]3C[C@@H]12 for me?
64

----------
Tested on: Klebsiella pneumoniae
Measurement Protocol: Antimicrobial activity against multidrug resistant Klebsiella pneumoniae isolate 9 by broth dilution method in presence of 26.3 mg/L efflux pump inhibitor phenylalanine-arginine-beta-naphthylamide
Assay type: functional
Measurement Kind: MIC

C[C@@H]1CN(c2c(F)c(N)c3c(=O)c(C(=O)O)cn(C4CC4)c3c2F)C[C@H](C)N1 [SPARFLOXACIN] | ≤ 0.06 µg/mL
O=C(N[C@H](CO)[C@H](O)c1ccc([N+](=O)[O-])cc1)C(Cl)Cl [CHLORAMPHENICOL] | 8 µg/mL
CCn1cc(C(=O)O)c(=O)c2cc(F)c(N3CCNCC3)cc21 [NORFLOXACIN] | ≤ 0.06 µg/mL

Can you look up the measured MIC of CN(C)[C@@H]1C(O)=C(C(N)=O)C(=O)[C@@]2(O)C(O)=C3C(=O)c4c(O)cccc4[C@@](C)(O)[C@H]3C[C@@H]12 [TETRACYCLINE] for me?
128 µg/mL

----------
Test system: Klebsiella aerogenes
Measurement Protocol: Antimicrobial activity against multidrug resistant Enterobacter aerogenes isolate 27 by broth dilution method
Format: functional
Overview of recorded MIC for various compounds
Just the number please, in µg/mL, no unit attached.

Known results for compounds:
CN(C)[C@@H]1C(O)=C(C(N)=O)C(=O)[C@@]2(O)C(O)=C3C(=O)c4c(O)cccc4[C@@](C)(O)[C@H]3C[C@@H]12 | 128
C[C@@H](O)[C@H]1C(=O)N2C(C(=O)O)=C(SCCNC=N)C[C@H]12 [IMIPENEM ANHYDROUS] | 1
CCn1cc(C(=O)O)c(=O)c2cc(F)c(N3CCNCC3)cc21 | 256
O=C(N[C@H](CO)[C@H](O)c1ccc([N+](=O)[O-])cc1)C(Cl)Cl | 1020
C[C@@H]1CN(c2c(F)c(N)c3c(=O)c(C(=O)O)cn(C4CC4)c3c2F)C[C@H](C)N1 | 256

Now examine the next entry.
Can you look up the measured MIC of CO/N=C(\C(=O)N[C@@H]1C(=O)N2C(C(=O)[O-])=C(C[N+]3(C)CCCC3)CS[C@H]12)c1csc(N)n1 for me?
128
